Assay: NCI Yeast Anticancer Drug Screen. Data for the bub3 strain (AID 167)
Conditions: S. cerevisiae bub3 mutant strain, at 100.0 µM
Experimental: Growth inhibition of yeast strains with defined genetic alterations is measured as a screen for potential anti-cancer activity. Selected strains with alterations in DNA damage repair or cell cycle control were exposed to compounds and growth inhibition was measured relative to vehicle treated controls. The strain used in this assay is bub3
The panel holds about 79,000 compounds, 15% with a hit somewhere; the sample as a whole holds those more often. The source made the active and inactive calls. No stated cut-off is given here; in the data, active means growth inhibition above about 70%; inactive means the rest.
Bench note: report the call from 1 (yes) (active), 0 (no) (inactive)

| Compound | Label |
| --- | --- |
| O=C(CC(=O)n1nc(-c2ccccc2)c(N=Nc2ccc(Cl)cc2)c1-c1ccccc1)Nc1cccc(Cl)c1 | 0 (no) |
| CN(C)CCNC(=O)c1cccc2c1Oc1c(cccc1[N+](=O)[O-])O2 | 1 (yes) |
| Clc1ccc(NCNC2Nc3ccccc3N2)cc1Cl | 1 (yes) |
| CCC1(OC(=O)CN2CCN(CCO)CC2)C(=O)OCc2c1cc1n(c2=O)Cc2cc3ccccc3nc2-1 (stereo not drawn) | 0 (no) |
| O=[N+]([O-])/C=C/c1cc(Cl)c(/C=C/[N+](=O)[O-])cc1Cl | 1 (yes) |

Exercise: Record request — test call for Cc1cc2c3ccccc3c3ccccc3c2nn1
Key: 0 (no)

Exercise: Can you check C(=Nc1ccc(-c2cc(-c3ccccc3)nc3ccc4ccccc4c23)cc1)c1ccccc1 next?
Key: 0 (no)

Exercise: Entry to check: CN(C)c1ccc2c(SCC(=O)OCC(=O)[C@@]3(O)CC[C@H]4[C@@H]5CCC6=CC(=O)C=C[C@]6(C)[C@H]5C(=O)C[C@@]43C)c3ccc(N(C)C)cc3nc2c1
Key: 1 (yes)

Exercise: Subsequent entry: CC(C)(C)CC(C)(C)c1cc(O)c(O)c(CN2CCCCC2)c1
Key: 0 (no)

Exercise: Can you handle CNC(=O)OCc1c(COC(=O)NC)c2n(c1C)-c1ccc(OC)cc1CCC2 next?
Key: 1 (yes)

Exercise: Repeat with CNC(=O)OCc1c(COC(=O)NC)c(-c2ccc(Cl)cc2)n2c1CCC2
Key: 1 (yes)

Exercise: Same read-out for O=C1OC(C2=CC(=O)c3ccccc3C2=O)C(Cl)=C1Cl (stereo not drawn) ?
Key: 0 (no)

Exercise: Also CCOC(=O)/C(=C\c1ccc(C#N)cc1)C(C)=O ?
Key: 1 (yes)
